Attribution: patent US20260125375A1

Measured EC50 of individual entries
target: CBL-B (Homo sapiens, UniProt Q13191); construct: endogenous in cells; host or cells: Jurkat HiBit-IL2 reporter cells, C-CBL knocked out by CRISPR; experiment: Jurkat HiBit-IL2 assay (c-CBL KO), reporter cell line expressing CBL-B only; assay type: cell-based; details: c-CBL KO (CBL-B only), anti-CD3/anti-CD28 stimulation 4 hours, geometric mean, Table 16a, read-out: C-CBL KO EC50 (nM) GMean

compound | limit-qualifier | EC50 (nM)
CC(NCCO)c1nc(C(F)(F)F)cc2c(-c3cccc([C@H](c4nncn4C)C4CCCCC4)c3)n[nH]c12 (single isomer, unassigned) [Example C39] | = | 35
CC(NCCO)c1nc(C(F)(F)F)cc2c(-c3cccc([C@H](c4nncn4C)C4CCCCC4)c3)n[nH]c12 (single isomer, unassigned) [Example C40] | = | 47
C[C@H](NC(C)(C)CO)c1nc(C(F)(F)F)cc2c(-c3cccc([C@H](c4nncn4C)C4CCC4)c3)n[nH]c12 (single isomer, unassigned) | = | 19
CC(NC1CCC1)c1nc(C2CC2)cc2c(-c3cccc(C4(Cc5nncn5C)COC4)c3)n[nH]c12 (single isomer, unassigned) [Example H3] | = | 49
C[C@H](c1nc(C(F)(F)F)cc2c(-c3cccc(C4(Cc5nncn5C)COC4)c3)n[nH]c12)N1CC[C@@H](F)C1 (single isomer, unassigned) | = | 102
CC(c1nc(C(F)(F)F)cc2c(-c3cccc(C4(Cc5nncn5C)COC4)c3)n[nH]c12)N1CCC[C@H](C)C1 (single isomer, unassigned) [Example C20] | = | 12
Cn1cnnc1[C@@H](c1cccc(-c2n[nH]c3c(CN[C@@H]4CCC[C@@H]4O)nc(C(F)(F)F)cc23)c1)C1CCC1 | = | 25
Cn1cnnc1[C@@H](c1cccc(-c2n[nH]c3cnc(C(F)(F)F)cc23)c1)C1CCC1 | > | 2990
C[C@H]1CCCN(Cc2nc(C(F)(F)F)cc3c(-c4cccc(C5(Cc6nncn6C)COC5)c4)n[nH]c23)C1 | = | 32
C[C@H]1CCCN(Cc2nc(C(F)(F)F)cc3c(-c4cccc([C@H](c5nncn5C)C5CCC5)c4)n[nH]c23)C1 | = | 58
C[C@H](N[C@H]1CC[C@@H]1O)c1nc(C(F)(F)F)cc2c(-c3cccc([C@H](c4nncn4C)C4CCC4)c3)n[nH]c12 (single isomer, unassigned) | = | 39
CC(c1nc(C(F)(F)F)cc2c(-c3cccc(C4(Cc5nncn5C)COC4)c3)n[nH]c12)N1CCOCC1 (single isomer, unassigned) [Example C23] | = | 152
C[C@@H](N[C@@H]1CCOC1)c1nc(C(F)(F)F)cc2c(-c3cccc([C@H](c4nncn4C)C4CCC4)c3)n[nH]c12 (single isomer, unassigned) | = | 47
C[C@H](N[C@@H]1CC[C@H]1O)c1nc(C(F)(F)F)cc2c(-c3cccc([C@H](c4nncn4C)C4CCC4)c3)n[nH]c12 (single isomer, unassigned) | = | 6
Cn1cnnc1CC1(c2cccc(-c3n[nH]c4ncc(C(F)(F)F)cc34)c2)COC1 | = | 1710
C[C@@H](N[C@@H]1CCC(F)(F)C1)c1nc(C(F)(F)F)cc2c(-c3cccc(C4(Cc5nncn5C)COC4)c3)n[nH]c12 (single isomer, unassigned) | = | 17
CC(c1nc(C(F)(F)F)cc2c(-c3cccc(C4(Cc5nncn5C)COC4)c3)n[nH]c12)N1CCCCC1 (single isomer, unassigned) [Example C22] | = | 120
C[C@H](N[C@@H]1CC[C@@H]1O)c1nc(C(F)(F)F)cc2c(-c3cccc([C@H](c4nncn4C)C4CCC4)c3)n[nH]c12 (single isomer, unassigned) | = | 1
CC(c1nc(C(F)(F)F)cc2c(-c3cccc(C4(Cc5nncn5C)COC4)c3)n[nH]c12)N1CCOCC1 (single isomer, unassigned) [Example C24] | = | 434
Cn1cnnc1CC1(c2cccc(-c3n[nH]c4c(CN[C@H]5CCC(F)(F)C5)nc(C(F)(F)F)cc34)c2)COC1 | = | 71
C[C@@H](N[C@H]1CCC(F)(F)C1)c1nc(C(F)(F)F)cc2c(-c3cccc([C@H](c4nncn4C)C4CCC4)c3)n[nH]c12 | = | 32
C[C@H](NC1CCC1)c1nc(C(F)(F)F)cc2c(-c3cccc(C4(Cc5nncn5C)COC4)c3)n[nH]c12 | = | 8
C[C@@H](NC1CC[C@H]1O)c1nc(C(F)(F)F)cc2c(-c3cccc([C@H](c4nncn4C)C4CCC4)c3)n[nH]c12 (single isomer, unassigned) | = | 16

====

molecular target: C-CBL (residues 46-435) (Homo sapiens, UniProt P22681); construct: Purified CBL-B (residues 36-427) and C-CBL (residues 46-435) proteins from baculovirus-infected insect cells; made in house; host or cells: baculovirus-infected insect cells; assay: Ligand Displacement Assay (LDA), HTRF competitive binding against BODIPY-labeled fluorescent tracer, C-CBL; settings: geometric mean of the number of tests, read-out: C-CBL Ki (nM) GMean
quantity-name: Ki

molecule | quantity-name | result
CC(C)NC(C)c1nc(C(F)(F)F)cc2c(-c3cccc([C@H](c4nncn4C)C4CCC4)c3)n[nH]c12 (single isomer, unassigned) [Example C34] | Ki | 88.5 nM
CC(c1nc(C(F)(F)F)cc2c(-c3cccc(C4(Cc5nncn5C)COC4)c3)n[nH]c12)N1CCC[C@H](C)C1 (single isomer, unassigned) [Example C19] | Ki | 61.3 nM
CC(NC1CCC1)c1nc(C2CC2)cc2c(-c3cccc(C4(Cc5nncn5C)COC4)c3)n[nH]c12 (single isomer, unassigned) [Example H4] | Ki | 4.5 nM
Cn1cnnc1[C@@H](c1cccc(-c2n[nH]c3c(CO)nc(C(F)(F)F)cc23)c1)C1CCC1 | Ki | 328 nM

====

molecular target: C-CBL (46-435) (Homo sapiens); construct: N-terminal biotinylated WT CBL-B (36-427) and C-CBL (46-435) were captured on a streptavidin (SA) coated sensor chip; assay: Surface Plasmon Resonance (SPR) assay, binding affinity and kinetics, C-CBL; conditions: SPR at 10° C., biotinylated C-CBL (46-435) on streptavidin chip; geometric mean; read-out: C-CBL SPR Kd (nM) GMean
Label Met when Kd < 100 nM; otherwise Not met.

molecule | answer-label
Cn1cnnc1CC1(c2cccc(-c3n[nH]c4ncc(C(F)(F)F)cc34)c2)COC1 | Not met
Cn1cnnc1[C@@H](c1cccc(-c2n[nH]c3c(CN4CCOCC4)nc(C(F)(F)F)cc23)c1)C1CCC1 | Not met
CC(C)NC(C)c1nc(C(F)(F)F)cc2c(-c3cccc([C@H](c4nncn4C)C4CCC4)c3)n[nH]c12 (single isomer, unassigned) [Example C35] | Met
CC(N)c1nc(C(F)(F)F)cc2c(-c3cccc(C4(Cc5nncn5C)COC4)c3)n[nH]c12 (single isomer, unassigned) [Example K16] | Not met
C[C@H](c1nc(C(F)(F)F)cc2c(-c3cccc(C4(Cc5nncn5C)COC4)c3)n[nH]c12)N1CCCC1 (single isomer, unassigned) | Met
C[C@H](N[C@H]1C[C@@H](O)C1)c1nc(C(F)(F)F)cc2c(-c3cccc([C@H](c4nncn4C)C4CCC4)c3)n[nH]c12 (single isomer, unassigned) | Met
Cn1cnnc1[C@@H](c1cccc(-c2n[nH]c3c(CNC4CCCC4)nc(C(F)(F)F)cc23)c1)C1CCC1 | Not met
Cn1cnnc1CC1(c2cccc(-c3n[nH]c4c(CN5C[C@@H](F)[C@@H](F)C5)nc(C(F)(F)F)cc34)c2)COC1 | Met
Cn1cnnc1[C@@H](c1cccc(-c2n[nH]c3c(CNC4CCC4)nc(C(F)(F)F)cc23)c1)C1CCC1 | Not met
C[C@@H](N[C@H]1C[C@@H](F)C1)c1nc(C(F)(F)F)cc2c(-c3cccc([C@H](c4nncn4C)C4CCC4)c3)n[nH]c12 (single isomer, unassigned) | Met
Cn1cnnc1[C@@H](c1cccc(-c2n[nH]c3c(CNC4CCOCC4)nc(C(F)(F)F)cc23)c1)C1CCC1 | Not met
Cn1cnnc1[C@@H](c1cccc(-c2n[nH]c3c(CN[C@H]4CCC(F)(F)C4)nc(C(F)(F)F)cc23)c1)C1CCC1 (single isomer, unassigned) | Met

====

biological target: C-CBL (Homo sapiens); construct: endogenous in cells; host or cells: Jurkat HiBit-IL2 reporter cells, CBL-B knocked out by CRISPR; assay: Jurkat HiBit-IL2 assay (CBL-B KO), reporter cell line expressing C-CBL only; format: cell-based; conditions: CBL-B KO (expressing C-CBL only), geometric mean, Table 16b (further repetition), read-out: CBL-B KO EC50 (nM) GMean

compound | display-unit | EC50
Cn1cnnc1[C@@H](c1cccc(-c2n[nH]c3cnc(C(F)(F)F)cc23)c1)C1CCC1 | nM | 4500
C[C@@H](c1nc(C(F)(F)F)cc2c(-c3cccc([C@H](c4nncn4C)C4CCC4)c3)n[nH]c12)N1CC[C@H](O)C1 (single isomer, unassigned) [Example D70] | nM | 618
C[C@@H](c1nc(C(F)(F)F)cc2c(-c3cccc([C@H](c4nncn4C)C4CCC4)c3)n[nH]c12)N1CC[C@H]1CO (single isomer, unassigned) | nM | 483
CC(C)[C@H]1CN(C)CCN1Cc1nc(C(F)(F)F)cc2c(-c3cccc([C@H](c4nncn4C)C4CCC4)c3)n[nH]c12 | nM | 134
C[C@@H](NC1(CO)CCC1)c1nc(C(F)(F)F)cc2c(-c3cccc([C@H](c4nncn4C)C4CCC4)c3)n[nH]c12 (single isomer, unassigned) | nM | 639
CC(NC[C@H](C)O)c1nc(C(F)(F)F)cc2c(-c3cccc([C@H](c4nncn4C)C4CCCCC4)c3)n[nH]c12 (single isomer, unassigned) [Example C100] | nM | 1410
